system: PPARg:RXRa 270nM:90nM, anti-RXR (NR concentration 270 nM, RXRa partner concentration 90 nM); assay: PBM binding z-score (relative to random genomic background probes); higher = stronger binding; sequences stand for … in GC…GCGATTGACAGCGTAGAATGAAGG
Cut-off 1 on PBM binding z-score, inclusive. At or above means TRUE; below means FALSE.

input: Given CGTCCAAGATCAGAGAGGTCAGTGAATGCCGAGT , state whether its PBM binding z-score is at least 1.
output: FALSE

input: Does the sequence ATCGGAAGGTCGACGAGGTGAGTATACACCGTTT have recorded PBM binding z-score that is 1 or more?
output: FALSE

input: Could you tell me if the measured PBM binding z-score of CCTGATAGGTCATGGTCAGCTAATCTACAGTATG reaches 1 or more?
output: TRUE

input: Exam item: decide whether the reported PBM binding z-score for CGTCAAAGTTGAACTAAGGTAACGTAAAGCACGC is at least 1.
output: TRUE

input: Is reported PBM binding z-score greater than or equal to 1 here: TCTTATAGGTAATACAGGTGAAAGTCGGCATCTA
output: TRUE

input: Does the reported PBM binding z-score for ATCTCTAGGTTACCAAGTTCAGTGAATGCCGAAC fall at or above the 1 mark?
output: TRUE

input: Determine whether measured PBM binding z-score meets or exceeds 1 for CGAACGAGGGCTTGAGTTGATAGCAAATGCCGAT
output: FALSE

input: Dear colleague, could you confirm whether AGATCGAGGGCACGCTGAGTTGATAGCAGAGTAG has PBM binding z-score at or above 1?
output: TRUE

input: Is PBM binding z-score for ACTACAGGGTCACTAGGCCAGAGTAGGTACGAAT at or above 1?
output: TRUE

input: Could you tell me if the measured PBM binding z-score of GCGACTGGGGCACAGCAGGTTACCATAAGGTTGG reaches 1 or more?
output: TRUE

input: Reported PBM binding z-score at or above 1? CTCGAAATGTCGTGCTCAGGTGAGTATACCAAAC
output: FALSE

input: Hello, I need to know if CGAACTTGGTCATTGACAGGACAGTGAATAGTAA has measured PBM binding z-score not below 1. Thanks!
output: FALSE

====

For each of the sequences below, state its PBM binding z-score.
tested on: LXRa homodimer (NR concentration 270 nM); assay: PBM binding z-score (relative to random genomic background probes); higher = stronger binding; sequences stand for … in GC…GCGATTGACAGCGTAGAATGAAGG
Kindly provide the number alone.

input: Recorded PBM binding z-score of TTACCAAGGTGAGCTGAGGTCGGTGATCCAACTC , please.
output: -0.197

input: Which value of PBM binding z-score has been reported for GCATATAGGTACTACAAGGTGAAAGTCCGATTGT in the records?
output: -0.343

input: Would you mind telling me what PBM binding z-score value was observed for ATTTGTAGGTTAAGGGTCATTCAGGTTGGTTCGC ?
output: 4.38

input: Which PBM binding z-score is listed for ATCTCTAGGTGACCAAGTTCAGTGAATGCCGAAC ?
output: 0.0777

input: Fill in the blank: the reported PBM binding z-score of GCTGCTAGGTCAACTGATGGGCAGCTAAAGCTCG is ____.
output: -0.419

input: Requested read-out: PBM binding z-score. Entry: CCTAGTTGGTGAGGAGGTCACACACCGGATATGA
output: 1.61

input: What measured PBM binding z-score goes with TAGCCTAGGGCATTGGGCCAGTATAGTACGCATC ?
output: -0.318

input: Reported PBM binding z-score for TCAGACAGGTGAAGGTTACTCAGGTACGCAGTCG : what is it?
output: 0.607

input: Requested field: PBM binding z-score. Item: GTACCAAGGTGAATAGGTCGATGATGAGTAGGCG
output: -0.251

input: For the sequence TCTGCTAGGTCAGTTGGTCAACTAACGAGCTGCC , what PBM binding z-score is on record?
output: -0.58

input: Please report the recorded PBM binding z-score for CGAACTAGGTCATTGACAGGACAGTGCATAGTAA .
output: 0.766

input: Item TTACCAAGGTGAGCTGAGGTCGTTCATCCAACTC has what recorded PBM binding z-score?
output: 0.0661

input: Entry under review: CCTACCGGGCCAAAAAGGTCATTGATGCCGATAA . Reported PBM binding z-score?
output: 3.75

input: Any idea what its PBM binding z-score is? The sequence is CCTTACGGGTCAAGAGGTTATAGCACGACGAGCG
output: 0.128

input: Data request, read-out PBM binding z-score, for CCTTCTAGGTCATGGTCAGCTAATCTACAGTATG
output: 0.676

input: Tell me the measured PBM binding z-score of CTACCAAGGTGAACAAGGTCGTTGACTACTATTC , please.
output: 0.0971

input: GET /values?readout=PBM binding z-score&item= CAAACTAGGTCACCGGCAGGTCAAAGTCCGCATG
output: 3.97

input: Entry under review: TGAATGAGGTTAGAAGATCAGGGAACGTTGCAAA . Reported PBM binding z-score?
output: -0.383

input: Given the sequence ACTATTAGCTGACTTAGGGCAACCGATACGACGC , what is its reported PBM binding z-score?
output: 0.194

input: Dear colleague, I am looking for the recorded PBM binding z-score of the following sequence: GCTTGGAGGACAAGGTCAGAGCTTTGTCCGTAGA
output: -0.316

input: Can you look up the measured PBM binding z-score of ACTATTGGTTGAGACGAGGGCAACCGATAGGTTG for me?
output: -0.00418

input: PBM binding z-score for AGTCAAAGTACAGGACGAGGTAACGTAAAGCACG ?
output: 0.0589

input: What does the record list as PBM binding z-score for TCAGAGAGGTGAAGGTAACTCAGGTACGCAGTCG ?
output: -0.198

input: Look up PBM binding z-score for this sequence: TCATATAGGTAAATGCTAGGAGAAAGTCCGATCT
output: 0.0582

input: What does the record list as PBM binding z-score for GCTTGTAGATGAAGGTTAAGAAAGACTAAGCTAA ?
output: -0.563

input: So what's the measured PBM binding z-score for this one? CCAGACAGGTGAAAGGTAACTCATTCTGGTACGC
output: 0.0278

input: Fill in: PBM binding z-score of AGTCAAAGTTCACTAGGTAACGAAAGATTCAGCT is ___
output: 2.87

input: # PBM binding z-score lookup, item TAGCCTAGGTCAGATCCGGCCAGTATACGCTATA
output: -0.272

input: Recorded PBM binding z-score for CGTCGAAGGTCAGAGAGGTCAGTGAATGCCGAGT , please?
output: 3.28

input: Which PBM binding z-score reading was recorded for the sequence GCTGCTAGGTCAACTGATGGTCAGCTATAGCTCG ?
output: 0.314

input: Please look up its PBM binding z-score: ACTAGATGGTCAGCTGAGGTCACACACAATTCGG
output: 2.33

input: Return reported PBM binding z-score; argument: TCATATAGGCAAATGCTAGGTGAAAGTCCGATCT
output: -0.00307

input: Give its PBM binding z-score value. Item: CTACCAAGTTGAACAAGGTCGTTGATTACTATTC
output: 0.853

input: Give its PBM binding z-score value. Item: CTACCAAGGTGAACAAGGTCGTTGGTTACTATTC
output: 0.281

input: For the sequence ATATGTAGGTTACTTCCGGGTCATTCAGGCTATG , what PBM binding z-score is on record?
output: 2

input: Reported PBM binding z-score, sequence CGAACTAGGTCAGAACAGGACAGTGCAGGATGAT : ____
output: -0.124

input: GET /values?readout=PBM binding z-score&item= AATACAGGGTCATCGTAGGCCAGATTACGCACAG
output: 2.75

input: I would be grateful if you could share the reported PBM binding z-score for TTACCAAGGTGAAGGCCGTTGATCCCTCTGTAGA .
output: -0.606

input: What does the record list as PBM binding z-score for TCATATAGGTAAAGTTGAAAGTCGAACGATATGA ?
output: -0.186

input: Fill in: PBM binding z-score of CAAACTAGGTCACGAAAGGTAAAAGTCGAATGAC is ___
output: 0.678

input: Given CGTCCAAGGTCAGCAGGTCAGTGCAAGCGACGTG , state its recorded PBM binding z-score.
output: 0.73

input: Given the sequence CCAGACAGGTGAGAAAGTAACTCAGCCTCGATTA , what is its reported PBM binding z-score?
output: 0.0347

input: Could you share which PBM binding z-score value was measured for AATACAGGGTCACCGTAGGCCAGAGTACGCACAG ?
output: 1.2

input: Reported PBM binding z-score, sequence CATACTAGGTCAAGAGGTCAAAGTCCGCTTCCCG : ____
output: 7.38

input: I am curious: what PBM binding z-score value has been reported for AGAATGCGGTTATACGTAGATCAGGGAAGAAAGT ?
output: -0.263

input: I would be grateful if you could share the reported PBM binding z-score for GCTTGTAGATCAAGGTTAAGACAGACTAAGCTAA .
output: -0.318

input: For the sequence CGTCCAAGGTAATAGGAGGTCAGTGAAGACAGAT , what PBM binding z-score is on record?
output: 3.58

input: # get_value(readout='PBM binding z-score', item= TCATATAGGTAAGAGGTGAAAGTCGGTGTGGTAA )
output: 0.368

input: Please look up its PBM binding z-score: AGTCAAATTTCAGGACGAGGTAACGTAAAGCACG
output: 0.0565

input: Sample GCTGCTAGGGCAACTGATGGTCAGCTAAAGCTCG — what was its PBM binding z-score?
output: -0.858

input: Tell me the measured PBM binding z-score of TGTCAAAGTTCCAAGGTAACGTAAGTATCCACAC , please.
output: -0.0669
